test system: CRL-7250; test: Cytotoxic Profiling of Annotated Libraries Using Quantitative High-Throughput Screening (AID 1296008); conditions: Five cell lines viability, CellTiter-Glo ATP luminescence, 48-72 h; also: nearly all actives have a fitted effect of over 60% in size; also: potency is read from the fitted curve at half-maximal effect
Inconclusive results are not listed. Calls of active or inactive are those of the source. Calls follow the shape of the dose curve; as a rule, active = well fitted inhibition curve with a large enough effect; inconclusive = small, poorly fitted or top-dose-only effect; inactive = flat fitted curve, though single readings scatter.

>  <Compound>
CCCCCCCCCCCCCC[N+](C)(C)C

>  <Potency>
7.5 µM (active)

$$$$
>  <Compound>
CCN(CC)CC(=O)OCC(=O)[C@@]1(O)CC[C@H]2[C@@H]3CCC4=CC(=O)CC[C@]4(C)[C@H]3[C@@H](O)C[C@@]21C

>  <Potency>
inactive

$$$$
>  <Compound>
CCOC(=O)Oc1ccc(CCNC(=O)[C@H](CCSC)NC(C)=O)cc1OC(=O)OCC

>  <Potency>
inactive

$$$$
>  <Compound>
CC(C)NCCCC1(C(N)=O)c2ccccc2-c2ccccc21

>  <Potency>
inactive

$$$$
>  <Compound>
NC(=O)NC1N=C([O][Al])NC1=O (stereo not given)

>  <Potency>
inactive

$$$$
